- test name: Prolonged DBU treatment of VKDNYI peptide resin (aspartimide formation)
- Type: physicochemical
- experimental conditions: target peptide VKDNYI; DBU/piperidine/DMF (1:19:79) over 225 minutes; 110 Fmoc removal cycles
property label: target [%] (%)
Give the value, in units of %, as a plain number.

compound | experimental value
CC(C)(C)OC(=O)C[C@H](NC(=O)OCC1c2ccccc2-c2ccccc21)C(=O)O [tBu, Fmoc-Asp(OtBu)-OH, reference compound] | 0.3

Form: compound = CCC(CC)(CC)OC(=O)C[C@H](NC(=O)OCC1c2ccccc2-c2ccccc21)C(=O)O [Epe] ; target [%] = 57.1

// CCC(C)(CC)OC(=O)C[C@H](NC(=O)OCC1c2ccccc2-c2ccccc21)C(=O)O [Mpe, Fmoc-Asp(OMpe)-OH, reference compound] : target [%] value = 18.8

For record CCCC(CCC)(CCC)OC(=O)C[C@H](NC(=O)OCC1c2ccccc2-c2ccccc21)C(=O)O [Php] the listed target [%] is 71.0

// recorded target [%] for CCCCC(CCCC)(CCCC)OC(=O)C[C@H](NC(=O)OCC1c2ccccc2-c2ccccc21)C(=O)O [Bno] : 74.5
